So I've got a bunch of molecules here, and I need their inhibition values.
Biological target: Exoenzyme S (Pseudomonas aeruginosa) (UniProt Q93SQ1)
Test: Inhibition of recombinant Pseudomonas aeruginosa PAK His6-tagged ExoS ADPRT domain expressed in Escherichia coli at 100 uM using human GST-fused vH-Ras as substrate measured over 30 mins in presence of 14.3.3beta and epsilonNAD+ by fluorescence assay relative to control
Answers are plain numbers, in %.

In the examples that follow, each entry is paired with its recorded inhibition.
{"compound smiles": "COC(=O)CCc1nc(OC)c2c3c(sc2n1)CCC3", "inhibition [%]": 25}
{"compound smiles": "O=C(O)CCCCc1nc2ccccc2c(=O)[nH]1", "inhibition [%]": 69}
{"compound smiles": "O=C(O)c1ccccc1Cc1nc2sc3c(c2c(=O)[nH]1)CCC3", "inhibition [%]": 50}
{"compound smiles": "O=C(O)CCCc1nc2cc3c(cc2c(=O)[nH]1)CCCC3", "inhibition [%]": 22}

Query: Recorded inhibition for "COc1ccc2c(=O)[nH]c(CCCC(=O)O)nc2c1" , please?
Response: 20

* * *

Molecular target: Exoenzyme S (Pseudomonas aeruginosa)
Assay: Inhibition of recombinant Pseudomonas aeruginosa PAK His6-tagged ExoS ADPRT domain expressed in Escherichia coli using human GST-fused vH-Ras as substrate measured over 30 mins in presence of 14.3.3beta and epsilonNAD+ by fluorescence assay
Settings: read-out: IC50
pIC50: −log10 of the molar value.
value kind: pIC50

In the examples that follow, each entry is paired with its recorded pIC50.
{"compound smiles": "O=C(O)c1ccccc1-c1nc2sc3c(c2c(=O)[nH]1)CCC3", "value kind": "pIC50", "val": 4.01}
{"compound smiles": "O=C(O)CCc1nc2sc3c(c2c(=O)[nH]1)CCC3", "value kind": "pIC50", "val": "4.70 to 4.72"}

Query: Recorded pIC50 for "O=C(O)CCCc1nc2ccccc2c(=O)[nH]1" , please?
Response: 4.52 to 4.60
